studyTarget: hNAMPT protein (Homo sapiens (Human))
measurementNotes: NAMPT enzyme assay (TR-FRET/HTRF, BodiPY ligand, anti 6His-Tb)
Type: binding
testSettings: compound concentration 1 μM; read-out: Percent Inhibition
Outcome: 1 for inhibition at 1 µM of at least 90%; 0 for anything lower.

molecule | studyTarget | classification
O=C(NCCCc1ncc[nH]1)c1ccc2nc(C3CCOCC3)c(-c3ccc(F)cc3)nc2c1 | hNAMPT protein (Homo sapiens (Human)) | 0
O=C(NCCCc1ncc[nH]1)c1ccc2nc(N3CCC(N4CCOCC4)CC3)c(-c3ccc(F)cc3)nc2c1 | hNAMPT protein (Homo sapiens (Human)) | 1
O=C(NCCCn1ccnc1)c1ccc2nc(-c3ccccc3)c(N3CCC(O)C3)nc2c1 (centres unmarked) | hNAMPT protein (Homo sapiens (Human)) | 0
O=C(NCc1ccc2nccn2c1)c1ccc2nc(N3CCC(O)CC3)c(-c3ccc(F)cc3)nc2c1 | hNAMPT protein (Homo sapiens (Human)) | 1
CCN(CC)c1nc2ccc(C(=O)NCCCn3ccnc3)cc2nc1-c1ccccc1 | hNAMPT protein (Homo sapiens (Human)) | 0

----------
Listing: IC50 of selected compounds
studyTarget: hNAMPT protein (Homo sapiens (Human), UniProt P43490)
Sequence (P43490 whole entry): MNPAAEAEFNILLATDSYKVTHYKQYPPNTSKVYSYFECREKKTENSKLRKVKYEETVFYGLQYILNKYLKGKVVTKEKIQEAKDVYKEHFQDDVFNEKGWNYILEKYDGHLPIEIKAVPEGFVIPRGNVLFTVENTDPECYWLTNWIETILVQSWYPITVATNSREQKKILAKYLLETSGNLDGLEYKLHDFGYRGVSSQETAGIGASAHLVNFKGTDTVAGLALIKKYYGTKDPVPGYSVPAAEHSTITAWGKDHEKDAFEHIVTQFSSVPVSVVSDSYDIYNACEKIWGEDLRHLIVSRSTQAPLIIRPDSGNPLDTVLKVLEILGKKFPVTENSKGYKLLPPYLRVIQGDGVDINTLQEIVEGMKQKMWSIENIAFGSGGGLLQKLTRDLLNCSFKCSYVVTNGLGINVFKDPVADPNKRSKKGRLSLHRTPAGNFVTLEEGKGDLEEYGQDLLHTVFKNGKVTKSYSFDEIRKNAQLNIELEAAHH
measurementNotes: NAMPT enzyme assay (TR-FRET/HTRF, BodiPY ligand, anti 6His-Tb)
Assay type: binding
testSettings: NAMPT IC50 range class; read-out: IC50

smilesString | IC50
O=C(NCCCn1ccnc1)c1ccc2nc(-c3ccccc3)c(N3CCn4ccnc4C3)nc2c1 | 2 to 10 µM
CN1CCN(Cc2nc3ccc(C(=O)NCCCn4ccnc4)cc3nc2-c2ccccc2)CC1 | 1 to 2 µM
CN1CCC(COc2nc3ccc(C(=O)NCCCc4ncc[nH]4)cc3nc2-c2ccc(F)cc2)CC1 | < 0.1 µM
Cc1nc(C)c(-c2nc3cc(C(=O)NCCCn4ccnc4)ccc3nc2-c2ccccc2)s1 | 1 to 2 µM
CC(C)Oc1nc2ccc(C(=O)NCCCc3ccc(N)nc3)cc2nc1-c1ccc(F)cc1 | 0.5 to 1 µM
CN(c1nc2cc(C(=O)NCCCn3ccnc3)ccc2nc1-c1ccccc1)C1CC1 | 2 to 10 µM
COc1cccc(-c2nc3cc(C(=O)NCCc4cccnc4)ccc3nc2N2CCOCC2)c1 | < 0.1 µM
O=C(c1ccc2nc(-c3ccc(F)cc3)c(-c3ccc(F)cc3)nc2c1)N1CCC(c2ccncc2)CC1 | 2 to 10 µM

----------
studyTarget: hNAMPT protein (Homo sapiens (Human), UniProt P43490)
measurementNotes: NAMPT enzyme assay (TR-FRET/HTRF, BodiPY ligand, anti 6His-Tb)
Format: binding
testSettings: NAMPT IC50 range class; read-out: IC50
Listing: IC50 of selected compounds

smilesString | studyTarget | IC50
Cn1cc2c(n1)CN(C(=O)c1ccc3nc(-c4ccc(F)cc4)c(-c4ccc(F)cc4)nc3c1)CC2 | hNAMPT protein (Homo sapiens (Human), UniProt P43490) | 1000 to 2000 nM
O=C(NCc1cn2cccnc2n1)c1ccc2nc(N3CCC(N4CCOCC4)CC3)c(-c3ccc(F)cc3)nc2c1 | hNAMPT protein (Homo sapiens (Human), UniProt P43490) | < 100 nM
O=C(NCCCn1ccnc1)c1ccc2nc(-c3ccco3)c(-c3ccco3)nc2c1 | hNAMPT protein (Homo sapiens (Human), UniProt P43490) | 1000 to 2000 nM
O=C(NCCCn1ccnc1)c1ccc2nc(C3=CCOCC3)c(-c3ccccc3)nc2c1 | hNAMPT protein (Homo sapiens (Human), UniProt P43490) | 100 to 500 nM
